These entries and their values trace back to the supplement of paper PMC7411054.

Test system: HepG2-ACTB-RAB5A
ASSAY: lowest phenotypically active concentration; higher = less potent
ASSAY CONTEXT: treatment time: 24 h
Structures can show the parent of a compound that is named as a salt.
ASSAY READOUT: lowest phenotypically active concentration

MOLECULE: O=C1Cc2cc(CCN3CCN(c4nsc5ccccc45)CC3)c(Cl)cc2N1
EXPERIMENTAL VALUE: 3 µM
--
MOLECULE: COc1c(C=O)c(O)cc2c1C(=O)c1ccccc1C2=O
EXPERIMENTAL VALUE: 9 µM
--
MOLECULE: CC(C)(N)c1cc(C(=O)N[C@@H]2CCc3ccc(OC4=C5CCC(=O)N=C5NC=C4)cc3C2)cc(C(F)(F)F)c1 [ML 786 dihydrochloride]
EXPERIMENTAL VALUE: ≤ 0.3 µM
--
MOLECULE: O=C1/C(=C\c2ccncc2)CCC/C1=C\c1ccncc1
EXPERIMENTAL VALUE: 9 µM

* * *

System: A549-TUBA1B-RELA
ASSAY: phenotypically active (imaging signature differs from DMSO and reproducible) at any of 0.3-9 uM (binary (1 = active, 0 = inactive)); higher = active
ASSAY CONTEXT: treatment time: 24 h
Where a name gives a salt, the structure may show the parent alone.
Labels: True for active, False for inactive

COMPOUND: COc1ccc(Cl)cc1C(=O)NCCc1ccc(S(=O)(=O)NC(=O)NC2CCCCC2)cc1 [glyburide]
DISCRETE LABEL: False

COMPOUND: O=C(O)[C@@H]1[C@H]2C[C@H]3c4[nH]c5ccccc5c4CCN3C[C@@H]2CC[C@@H]1O [Yohimbinic acid monohydrate]
DISCRETE LABEL: True

COMPOUND: NC(=O)c1sc2c([N+](=O)[O-])cc(C(F)(F)F)cc2[n+]1[O-]
DISCRETE LABEL: False

COMPOUND: Nc1ncnc2c1nc(Br)n2[C@@H]1O[C@@H]2COP(=O)(O)O[C@H]2[C@H]1O [8-Bromo-cAMP, sodium salt]
DISCRETE LABEL: False

COMPOUND: COc1cc2c(Nc3ccc(Br)cc3F)ncnc2cc1OCC1CCN(C)CC1
DISCRETE LABEL: True

COMPOUND: C[C@]1(O)C[C@@H](c2nc(-c3ccc4ccc(-c5ccccc5)nc4c3)c3c(N)nccn32)C1
DISCRETE LABEL: True

COMPOUND: Cc1ncc([N+](=O)[O-])n1CCOC(=O)NC(Nc1ncccn1)C(Cl)(Cl)Cl (centres undefined)
DISCRETE LABEL: False

COMPOUND: C[C@]12CC[C@@H]3c4ccc(O)cc4CC[C@H]3[C@@H]1CC[C@@H]2OC(=O)CCC1CCCC1 [estradiol cypionate]
DISCRETE LABEL: False

COMPOUND: CC(CN(C)C)CN1c2ccccc2CCc2ccccc21 (centres undefined)
DISCRETE LABEL: True

COMPOUND: S=P(N1CC1)(N1CC1)N1CC1
DISCRETE LABEL: False

COMPOUND: Cc1ccc(/C(=C/CN2CCCC2)c2cccc(/C=C/C(=O)O)n2)cc1
DISCRETE LABEL: True

COMPOUND: Cc1cc(C(=O)Nc2cccc(C(=O)Nc3cccc(C(F)(F)F)c3)c2)on1
DISCRETE LABEL: False

COMPOUND: C[C@@H]1CN(CC(=O)Nc2ccc3c(c2)Cc2cccc(-c4cc(=O)cc(N5CCOCC5)o4)c2S3)C[C@H](C)O1
DISCRETE LABEL: True

COMPOUND: CC(C)NC[C@H](O)COc1cccc2ccccc12 [(S)-(-)-Propranolol hydrochloride]
DISCRETE LABEL: False

COMPOUND: CN1CC(=O)N2[C@H](c3ccc4c(c3)OCO4)c3[nH]c4ccccc4c3C[C@@H]2C1=O
DISCRETE LABEL: False

COMPOUND: CN(CCOc1ccc(C[C@H](Nc2ccccc2C(=O)c2ccccc2)C(=O)O)cc1)c1ccccn1 [GW 1929 hydrochloride]
DISCRETE LABEL: False

COMPOUND: Cc1ccccc1C(OCCN(C)C)c1ccccc1 (centres undefined)
DISCRETE LABEL: False

COMPOUND: CC(C)(Sc1ccc(CCN(CCCCC2CCCCC2)C(=O)NC2CCCCC2)cc1)C(=O)O
DISCRETE LABEL: False

COMPOUND: COc1cc(OC2CCN(C)CC2)ccc1Nc1ncc2c(n1)n(C1CCCC1)c(=O)n2C
DISCRETE LABEL: True

COMPOUND: CC1(C)[C@@H](O)CC[C@]2(C)[C@H]3C(=O)C=C4[C@@H]5C[C@@](C)(C(=O)O)CC[C@]5(C)CC[C@@]4(C)[C@]3(C)CC[C@@H]12
DISCRETE LABEL: False

COMPOUND: NCCCCNS(=O)(=O)c1ccc2c(Cl)cccc2c1 [W-13 hydrochloride]
DISCRETE LABEL: False

COMPOUND: O=C(Nc1ccccc1)N1CCC(Cc2cnc3ccccc3c2)CC1
DISCRETE LABEL: False

COMPOUND: CCCC(=O)O[C@]1(C(=O)COC(C)=O)CC[C@H]2[C@@H]3C[C@H](F)C4=CC(=O)C=C[C@]4(C)[C@@]3(F)[C@@H](O)C[C@@]21C [difluprednate]
DISCRETE LABEL: True

COMPOUND: O=C(Nc1c(Cl)cncc1Cl)c1ccc(OC(F)F)c(OCC2CC2)c1
DISCRETE LABEL: False

COMPOUND: Nc1cccc(-c2cc3c(Oc4cccc(O)c4)ncnc3[nH]2)c1
DISCRETE LABEL: True

COMPOUND: OCCN1C[C@H](O)[C@@H](O)[C@H](O)[C@H]1CO
DISCRETE LABEL: False

COMPOUND: CN(C)/N=N/c1[nH]cnc1C(N)=O
DISCRETE LABEL: False

COMPOUND: COc1cc(OC)c2c(=O)[nH]c(-c3cc(C)c(OCCO)c(C)c3)nc2c1
DISCRETE LABEL: False

COMPOUND: CC[C@@H]1C(=O)N(C)c2cnc(Nc3ccc(C(=O)NC4CCN(C)CC4)cc3OC)nc2N1C1CCCC1
DISCRETE LABEL: True

COMPOUND: C[C@H]1Oc2cc(cnc2N)-c2c(nn(C)c2C#N)CN(C)C(=O)c2ccc(F)cc21
DISCRETE LABEL: True

COMPOUND: NCCNS(=O)(=O)c1ccc(Cl)c2ccncc12 [CKI 7 dihydrochloride]
DISCRETE LABEL: False

COMPOUND: CC[N+](C)(CC)CCOC(=O)C1c2ccccc2Oc2ccccc21
DISCRETE LABEL: False

COMPOUND: CN(C)c1ccc(/C=C2\C(=O)Nc3ccccc32)cc1
DISCRETE LABEL: True

COMPOUND: CC(C(=O)Nc1cccc(/N=C/c2c(O)ccc3ccccc23)c1)c1ccccc1 (centres undefined) [Salermide]
DISCRETE LABEL: False
